- Measured On: glutathione-S-transferase (GST) tagged LXRalpha LBD (ligand binding domain) (Homo sapiens, UniProt Q13133)
- Construct: purchased Invitrogen pv4655
- Sequence (Q13133 209-447 limits assumed): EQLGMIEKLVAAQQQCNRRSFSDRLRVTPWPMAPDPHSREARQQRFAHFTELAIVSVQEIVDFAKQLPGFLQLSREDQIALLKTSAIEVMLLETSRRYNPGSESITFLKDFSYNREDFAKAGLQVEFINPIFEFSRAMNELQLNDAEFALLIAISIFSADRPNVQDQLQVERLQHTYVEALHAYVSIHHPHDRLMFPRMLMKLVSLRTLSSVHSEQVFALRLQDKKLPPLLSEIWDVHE
- Method Description: LanthaScreen TR-FRET Liver X Receptor Coactivator Assay, co-activator recruitment to LXRalpha LBD
- Assay type: biochemical
- Test Parameters: potency (Inflection Point, IP), co-activator recruitment to LXRalpha LBD, in relation to T0901317; read-out: LXR alpha IP
pEC50: −log10 of the molar value.
Observed Property: pEC50

Would you please look over these solved cases?
CN(C)C(=O)c1ccc(N2CCC(CC3CN(C(=O)[C@](O)(c4cccc(OC(F)(F)F)c4)C(F)(F)F)C3)CC2)cc1Cl: 5.82
CN(C)C(=O)c1ccc(N2CCC(CC3CCN(C(=O)C(N)(c4ccccc4)C(F)(F)C(F)(F)F)CC3)CC2)cc1Cl (centres unmarked): 5.83
CN(Cc1cncs1)C(=O)c1ccc(N2CCC(CC3CCN(C(=O)[C@](O)(c4ccccc4)C(F)(F)F)CC3)CC2)cc1Cl: 6.27
CN(C)C(=O)c1ccc(N2CCC(CC3CCN(C(=O)[C@](O)(c4ccccc4)C(F)F)CC3)CC2)cc1Cl: 6.53
CN(C)CCN(C)C(=O)c1ccc(N2CCC(CC3CCN(C(=O)[C@](O)(c4ccccc4)C(F)(F)F)CC3)CC2)cc1Cl: 6.17

P. CN(C)C(=O)c1ccc(N2CCC(OC3CCN(C(=O)C4(c5ccccc5)CCC4)CC3)CC2)cc1Cl
Q. CN(C)C(=O)c1ccc(N2CCC(CC3CCN(C(=O)[C@](O)(c4cc(F)cc(Cl)c4)C(F)(F)F)CC3)CC2)nc1Cl
R. CN(C)C(=O)c1ccc(N2CCC(CC3CCN(C(=O)C(C)(C)c4ccccc4)CC3)CC2)nc1Cl
S. COc1cccc([C@@](O)(C(=O)N2CCC(OC3CCN(c4ccc(C(=O)N(C)C)c(Cl)c4)CC3)CC2)C(F)(F)F)c1
T. O=C(c1ccc(N2CCC(CC3CCN(C(=O)[C@](O)(c4ccccc4)C(F)(F)F)CC3)CC2)cc1Cl)N1CC[C@H](F)C1
Reorder the items by pEC50, least to greatest. Respond with an ordered listing of the labels, as requested.
P, S, R, T, Q
(P: 5.34, S: 5.76, R: 6.09, T: 6.31, Q: 7.19)

1. CN(C)C(=O)c1ccc(N2CCC(CC3CCN(C(=O)[C@](O)(c4cccc(C5CC5)c4)C(F)(F)F)CC3)CC2)cc1Cl
2. CNC(=O)c1ccc(N2CCC(CC3CCN(C(=O)[C@](O)(c4cccc(OC(F)(F)F)c4)C(F)(F)F)CC3)CC2)cc1Cl
Endpoint returns the identifier whose pEC50 is numerically larger, either 1 or 2 . Give the label under which the chosen entry appears.
1
(1: 7.18, 2: 6.13)

a. CNC(=O)c1ccc(N2CCC(CC3CCN(C(=O)[C@](O)(c4ccccc4)C(F)(F)F)CC3)CC2)cc1Cl [Example 7-25]
b. CN(C)C(=O)c1ncc(N2CCC(CC3CCN(C(=O)C(O)(c4cccc(C(F)(F)F)c4)C(F)(F)F)CC3)CC2)cc1Cl (centres unmarked)
Parameter metric = pEC50. Return the lower-valued option from a and b . Select an item and report its label.
b
(b: 6.12, a: 6.46)

A. CNC(=O)c1ccc(N2CCC(CC3CCN(C(=O)[C@](O)(c4cccc(C(F)(F)F)c4)C(F)(F)F)CC3)CC2)cc1Cl
B. CN(C)C(=O)c1ccc(N2CCC(CC3CCN(C(=O)[C@](O)(c4cccc(C(F)(F)F)c4)C(F)(F)F)CC3)CC2)cc1
For the pair A and B , which member has the lower pEC50 number? Select an item and report its label.
A
(A: 5.93, B: 6.15)
